# System: SF-539 CNS
# protocolNotes: NCI tumour cell line growth inhibition, 48 h
metric: TGI

Below are worked cases with known answers.
> print(dat)
                                   molecule    result
1                    C1CNCCN2CCCNCCN(C1)CC2  > 100 µM
2  CCOc1ccc(Cc2nccc3cc(OCC)c(OCC)cc23)cc1OCC   20.7 µM
3      Cc1ccc2nc3c(C(=O)NCCN(C)C)cccc3cc2c1   10.1 µM
4  O=C1CCc2c3c(c4c([nH]c5ccccc54)c2CC1)C(=O)NC3=O  > 100 µM
5  CN(CCCNC(=O)c1cn(C)c2c1ccc1cc(Cl)ccc12)CCCNC(=O)c1cn(C)c2c1ccc1cc(Cl)ccc12   3.88 µM

For every listed record, write down its TGI.
1. O=C(c1cc2ccccc2[nH]1)C(O)(c1cc2ccccc2[nH]1)c1cc2ccccc2[nH]1
2. CC1=CC(c2ccccc2)OP1(=O)c1ccccc1 (stereo not given)
3. NNC(N)=Nc1cccc2ccccc12
4. CN(Cc1cnc2nc(N)nc(N)c2n1)c1ccc(C(=O)NC(CCS(=O)(=O)O)C(=O)O)cc1 (stereo not given)
5. OC(c1cc(C(O)(C(F)(F)F)C(F)(F)F)ncn1)(C(F)(F)F)C(F)(F)F
6. CCOC(=O)C(Cc1ccc2c(c1)CCC2)(Cc1ccc2c(c1)CCC2)C(=O)OCC
7. C/C(Cl)=N\OC(=O)Nc1ccc([N+](=O)[O-])cc1

Return:
["> 246 µM", "> 100 µM", "> 100 µM", "> 100 µM", "> 10 µM", "> 100 µM", "31.8 µM"]

Provide TGI for all items below, preserving their order.
1. Cc1ccc(-n2c3c(c4c(CN5CCCCC5)c(O)ccc42)CCc2ccccc2C3=O)cc1
2. COCCO
3. C=CCCCCOC1C=CC(OC(C)=O)C(COC(C)=O)O1 (stereo not given)
4. CN1CN(c2ccccc2)C2(CCNCC2)C1=O
5. CSCCC(NC(=O)C(Cc1ccccc1)NC(=O)CNC(=O)CNC(=O)C(N)Cc1ccc(O)cc1)C(=O)O (stereo not given)
6. C=CCN1CCC(OC(=O)C(O)(/C=C\CC)C2CCCC2)CC1 (stereo not given)
7. CC(C)OP(=O)(OC(C)C)C(C(F)(F)F)C(F)(F)F

Return:
["> 100 µM", "> 100 µM", "> 100 µM", "> 100 µM", "> 100 µM", "> 100 µM", "> 100 µM"]

Look at each molecule and report its TGI.
1. CCOC(=O)C(SCCO)C(C(=O)OCC)n1ccc(N)nc1=O (stereo not given)
2. C=C1C(=O)OC2CCCCC3OC3C12 (stereo not given)
3. C/C(=N/O)C1CC=C(S(=O)(=O)c2ccccc2)C1 (stereo not given)

Return:
["> 100 µM", "28.1 µM", "> 100 µM"]

###

For each of the compounds below, state its TGI.
# Test system: SF-295 CNS
# protocolNotes: NCI tumour cell line growth inhibition, 48 h

List the reported TGI of each compound below.
1. CCOC(=O)C(SCCO)C(C(=O)OCC)n1ccc(N)nc1=O (stereo not given)
2. O=[N+]([O-])c1cccc(C2SCc3nc4ccccc4n32)c1 (stereo not given)
3. C=CCN1C(=O)/C(=c2\sc3n(c2=O)C2C(NN=3)N(CC)C(=O)N2CC)c2ccccc21 (stereo not given)

Return:
1. > 100 µM
2. > 100 µM
3. > 33.7 µM

For the 7 compounds below, give their TGI values.
1. CC1=C(C(=O)Nc2cccc(C(F)(F)F)c2)C(c2ccc(O)cc2)C(C(=O)Nc2cccc(C(F)(F)F)c2)=C(C)N1
2. C/C(=N\NC(=O)CC(=O)Nc1ccc(C)cc1)c1cc2ccccc2oc1=O
3. Nn1c(CNc2ccc(-c3nnc(Nc4ccc(Cl)cc4)n3N)cc2)nnc1Nc1ccc(Cl)cc1
4. C=C1CC(OC(C)=O)/C=C(/C)CCC(C(C)(C)O)CC1O (stereo not given)
5. C=C1C(=O)OC2CCCCC3OC3C12 (stereo not given)
6. Cc1ccc(-n2c3c(c4c(CN5CCCCC5)c(O)ccc42)CCc2ccccc2C3=O)cc1
7. CCCCC1Cc2cc(O)ccc2-c2n1c1cc(O)ccc1[n+]2C (stereo not given) (tested in a mixture with another compound)

Return:
39.9 µM
> 100 µM
> 100 µM
> 100 µM
48.6 µM
> 100 µM
> 60.1 µM

Give TGI for each of the items listed below.
1. COC(=O)N1CC[C@@H]2CCC=C(c3cccc4c3OCO4)[C@@H]21
2. COc1cc(/C=C2\C(=O)N(c3cccc(Cl)c3)C(c3ccccc3)S2(=O)=O)cc(OC)c1OC (stereo not given)
3. CSC1=Nc2c(c(C)c(-c3ccccc3)n2COC(CO)CO)C2=NC(=O)C(C)N12 (stereo not given)
4. O=C(NC(=O)c1cn(CCN2CCNCC2)c(=O)[nH]c1=O)OCc1ccccc1
5. CCOC(=O)c1ccc(N=C2SC(=S)N(c3ccc(F)cc3)C2=Nc2ccc(C(=O)OCC)cc2)cc1

Return:
1: > 100 µM; 2: > 100 µM; 3: > 100 µM; 4: > 100 µM; 5: > 100 µM
